# System: RPMI-6666 (Non-Cancerous)
# Method: combination Emax (second highest fraction inhibited in the dose matrix, 72 h); higher = more inhibition; extreme values may be limits of the assay
Reported metric: combination Emax

Compound: CC(=O)Nc1cccc(-n2c(=O)n(C3CC3)c(=O)c3c(Nc4ccc(I)cc4F)n(C)c(=O)c(C)c32)c1 [Trametinib] + Cc1nc(-c2cn3c(n2)-c2ccc(-c4cnn(C(C)(C)C(N)=O)c4)cc2OCC3)n(C(C)C)n1 [Taselisib] (first compound max 1 µM, 7x7, partner max 10 µM)
Reported metric: combination Emax
Meas value: 0.675
//
Compound: CC1(C)CCC(CN2CCN(c3ccc(C(=O)NS(=O)(=O)c4ccc(NCC5CCOCC5)c([N+](=O)[O-])c4)c(Oc4cnc5[nH]ccc5c4)c3)CC2)=C(c2ccc(Cl)cc2)C1 [Venetoclax] + COc1cc(Nc2ncc3c(n2)-c2ccc(Cl)cc2C(c2c(F)cccc2OC)=NC3)ccc1C(=O)O [Alisertib] (first compound max 1 µM, 7x7, partner max 10 µM)
Reported metric: combination Emax
Meas value: 0.967
//
Compound: CCN(CCO)CCCOc1ccc2c(Nc3cc(CC(=O)Nc4cccc(F)c4)[nH]n3)ncnc2c1 [AZD2811] + C=CCn1c(=O)c2cnc(Nc3ccc(N4CCN(C)CC4)cc3)nc2n1-c1cccc(C(C)(C)O)n1 [AZD1775] (first compound max 1 µM, partner max 1 µM)
Reported metric: combination Emax
Meas value: 0.902
//
Compound: C[C@@H]1COCCN1c1cc(C2([S@](C)(=N)=O)CC2)nc(-c2ccnc3[nH]ccc23)n1 [AZD6738] + C1CC(C1)(C(=O)[O-])C(=O)[O-].N.N.[Pt+2] [Carboplatin] (first compound max 10 µM, 7x7, partner max 10 µM)
Reported metric: combination Emax
Meas value: 0.7
//
Compound: CS(=O)(=O)CCNCc1ccc(-c2ccc3ncnc(Nc4ccc(OCc5cccc(F)c5)c(Cl)c4)c3c2)o1 [Lapatinib] + C[C@@H](Oc1cc(-c2cnn(C3CCNCC3)c2)cnc1N)c1c(Cl)ccc(F)c1Cl [Crizotinib] (first compound max 10 µM, 7x7, partner max 10 µM)
Reported metric: combination Emax
Meas value: 0.843
//
Compound: COc1nnc2ccc(N3CCC(c4ccc(OCCN5CCN(C)C(=O)[C@H]5C)cc4)CC3)nn12 [AZD5153] + C=CCn1c(=O)c2cnc(Nc3ccc(N4CCN(C)CC4)cc3)nc2n1-c1cccc(C(C)(C)O)n1 [AZD1775] (first compound max 1 µM, partner max 1 µM)
Reported metric: combination Emax
Meas value: 0.828
//
Compound: C[C@@H](Oc1cc(-c2cnn(C3CCNCC3)c2)cnc1N)c1c(Cl)ccc(F)c1Cl [Crizotinib] + CC1=C(C(=CC=C1)Cl)NC(=O)C2=CN=C(S2)NC3=CC(=NC(=N3)C)N4CCN(CC4)CCO [Dasatinib] (first compound max 10 µM, 7x7, partner max 2 µM)
Reported metric: combination Emax
Meas value: 0.686

---

# Tested on: CAL-54 (Kidney Carcinoma);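 also: after 72 h of two-drug dosing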
# Method: Bliss excess, mean over the matrix (fraction); higher = more synergy

Compound: CC(=O)c1c(C)c2cnc(Nc3ccc(N4CCNCC4)cn3)nc2n(C2CCCC2)c1=O [Palbociclib] + Cc1c2c(nn1C)CSCc1cc(n(C)n1)CSc1cc(c3ccccc3c1)OCCCc1c(C(=O)O)n(C)c3c-2c(Cl)ccc13 [AZD5991] (first compound max 10 µM, 7x7, partner max 1 µM)
Bliss excess: -0.0781
--
Compound: CCc1c2c(nc3ccc(O)cc13)-c1cc3c(c(=O)n1C2)COC(=O)[C@]3(O)CC [SN-38] + CN(C)CCCOc1ccc(-c2ccc3ncc4c(c3c2)n(C2CCOCC2)c(=O)n4C)cn1 [AZD0156] (first compound max 0.3 µM, 7x7, partner max 1 µM)
Bliss excess: 0.005
--
Compound: CC(=O)c1c(C)c2cnc(Nc3ccc(N4CCNCC4)cn3)nc2n(C2CCCC2)c1=O [Palbociclib] + CC1(C)CCC(CN2CCN(c3ccc(C(=O)NS(=O)(=O)c4ccc(NCC5CCOCC5)c([N+](=O)[O-])c4)c(Oc4cnc5[nH]ccc5c4)c3)CC2)=C(c2ccc(Cl)cc2)C1 [Venetoclax] (first compound max 10 µM, 7x7, partner max 1 µM)
Bliss excess: -0.008
--
Compound: Cc1cc2ncnn2cc1Nc1ncc2c(n1)n(C1CCOCC1)c(=O)n2C [AZD7648] + C=CCn1c(=O)c2cnc(Nc3ccc(N4CCN(C)CC4)cc3)nc2n1-c1cccc(C(C)(C)O)n1 [AZD1775] (first compound max 10 µM, partner max 1 µM)
Bliss excess: 0.016
--
Compound: CCN(CCO)CCCOc1ccc2c(Nc3cc(CC(=O)Nc4cccc(F)c4)[nH]n3)ncnc2c1 [AZD2811] + O=C(c1cc(Cc2n[nH]c(=O)c3ccccc23)ccc1F)N1CCN(C(=O)C2CC2)CC1 [Olaparib] (first compound max 1 µM, 7x7, partner max 10 µM)
Bliss excess: -0.0073
--
Compound: O=C(c1cc(Cc2n[nH]c(=O)c3ccccc23)ccc1F)N1CCN(C(=O)C2CC2)CC1 [Olaparib] + CC1(C)CCC(CN2CCN(c3ccc(C(=O)NS(=O)(=O)c4ccc(NCC5CCOCC5)c([N+](=O)[O-])c4)c(Oc4cnc5[nH]ccc5c4)c3)CC2)=C(c2ccc(Cl)cc2)C1 [Venetoclax] (first compound max 10 µM, 7x7, partner max 1 µM)
Bliss excess: -0.0496
--
Compound: CS(=O)(=O)CCNCc1ccc(-c2ccc3ncnc(Nc4ccc(OCc5cccc(F)c5)c(Cl)c4)c3c2)o1 [Lapatinib] + Cn1cnc2c(F)c(Nc3ccc(Br)cc3Cl)c(C(=O)NOCCO)cc21 [Selumetinib] (first compound max 10 µM, 7x7, partner max 10 µM)
Bliss excess: 0.0022
--
Compound: CN(C)CCCOc1ccc(-c2ccc3ncc4c(c3c2)n(C2CCOCC2)c(=O)n4C)cn1 [AZD0156] + C[C@@H]1COCCN1C2=NC(=NC(=C2)C3(CC3)[S@](=N)(=O)C)C4=C5C=CNC5=NC=C4 [AZD6738] (first compound max 1 µM, 7x7, partner max 10 µM)
Bliss excess: -0.0136
--
Compound: COc1nnc2ccc(N3CCC(c4ccc(OCCN5CCN(C)C(=O)[C@H]5C)cc4)CC3)nn12 [AZD5153] + C=CCn1c(=O)c2cnc(Nc3ccc(N4CCN(C)CC4)cc3)nc2n1-c1cccc(C(C)(C)O)n1 [AZD1775] (first compound max 1 µM, partner max 1 µM)
Bliss excess: -0.0366
--
Compound: CC1(C)CCC(CN2CCN(c3ccc(C(=O)NS(=O)(=O)c4ccc(NCC5CCOCC5)c([N+](=O)[O-])c4)c(Oc4cnc5[nH]ccc5c4)c3)CC2)=C(c2ccc(Cl)cc2)C1 [Venetoclax] + CN(C)CCCOc1ccc(-c2ccc3ncc4c(c3c2)n(C2CCOCC2)c(=O)n4C)cn1 [AZD0156] (first compound max 1 µM, 7x7, partner max 1 µM)
Bliss excess: -0.0085
--
Compound: CC1(C)CCC(CN2CCN(c3ccc(C(=O)NS(=O)(=O)c4ccc(NCC5CCOCC5)c([N+](=O)[O-])c4)c(Oc4cnc5[nH]ccc5c4)c3)CC2)=C(c2ccc(Cl)cc2)C1 [Venetoclax] + Cn1cnc2c(F)c(Nc3ccc(Br)cc3Cl)c(C(=O)NOCCO)cc21 [Selumetinib] (first compound max 1 µM, 7x7, partner max 3 µM)
Bliss excess: -0.0466
--
Compound: CC1(C)CCC(CN2CCN(c3ccc(C(=O)NS(=O)(=O)c4ccc(NCC5CCOCC5)c([N+](=O)[O-])c4)c(Oc4cnc5[nH]ccc5c4)c3)CC2)=C(c2ccc(Cl)cc2)C1 [Venetoclax] + C=CCn1c(=O)c2cnc(Nc3ccc(N4CCN(C)CC4)cc3)nc2n1-c1cccc(C(C)(C)O)n1 [AZD1775] (first compound max 1 µM, partner max 1 µM)
Bliss excess: -0.0099
--
Compound: C[C@@H](Oc1cc(-c2cnn(C3CCNCC3)c2)cnc1N)c1c(Cl)ccc(F)c1Cl [Crizotinib] + CC1=C(C(=CC=C1)Cl)NC(=O)C2=CN=C(S2)NC3=CC(=NC(=N3)C)N4CCN(CC4)CCO [Dasatinib] (first compound max 10 µM, 7x7, partner max 2 µM)
Bliss excess: -0.033
